A compilation of IC50 values for UniProt:O43451 from the published literature.
Note that class boundaries on IC50 are bottom end (below 20 µM), midrange (20 µM to below 100 µM), top end (100 µM or more)

INPUT: Which category does the recorded IC50 put O=C(Nc1sc2c(c1C(=O)NCc1ccccc1)CCCC2)c1cccnc1 in?
OUTPUT: midrange

INPUT: Which category does the recorded IC50 put COc1cc(CNC(=O)c2c(NC(=O)c3cccnc3)sc3c2CCCC3)ccc1O in?
OUTPUT: bottom end

INPUT: Which category does the recorded IC50 put C=CCc1cc(-c2ccc(O)c(CC=C)c2)c(O)c(C(c2cc(Cl)cc(Cl)c2)N2CCOCC2)c1 (stereo unspecified) in?
OUTPUT: bottom end

INPUT: Which category does the recorded IC50 put C=C1CC[C@@H]2[C@](C)(COC(=O)c3cccnc3)[C@H](OC(=O)c3cccnc3)CC[C@@]2(C)[C@@H]1/C=C/C1=CC(=C\c2ccccc2)/OC1=O in?
OUTPUT: bottom end

New cases:
INPUT: Which category does the recorded IC50 put COc1ccc2c(c1)OC[C@H]1c3ccc(OC)c(O)c3O[C@@H]21 in?
OUTPUT: top end

INPUT: Which category does the recorded IC50 put COc1ccc(C2SCC(=O)N2c2ccc3nc(Cc4ccc(O)cc4)c(=O)[nH]c3c2)cc1 (stereo unspecified) in?
OUTPUT: top end

INPUT: Which category does the recorded IC50 put COc1ccc(/C=C2C=C(/C=C/[C@@H]3[C@@]4(CC[C@@H]5[C@](C)(CO)[C@H](O)CC[C@]53C)CO4)C(=O)O/2)cc1 in?
OUTPUT: top end

INPUT: Which category does the recorded IC50 put COc1ccc(-c2oc3cc(OC)cc(OC)c3c(=O)c2OCCCCCCCCN2C[C@H](O)[C@@H](O)[C@H](O)[C@H]2CO)cc1 in?
OUTPUT: bottom end

INPUT: Which category does the recorded IC50 put O=c1oc2cc(O)ccc2c2oc3cc(O)ccc3c12 in?
OUTPUT: bottom end

INPUT: Which category does the recorded IC50 put COc1ccc(-c2oc3cc(OC)cc(OC)c3c(=O)c2OCCCCCN2C[C@H](O)[C@@H](O)[C@H](O)[C@H]2CO)cc1 in?
OUTPUT: midrange

###

A compilation of IC50 values for Maltase-glucoamylase (Homo sapiens, UniProt O43451) from the published literature.
Give bare numbers, in µM.

INPUT: # lookup: IC50 of CC/C=C\C/C=C\CCC(=O)O[C@@]12[C@H](OC(=O)[C@@H](C)CC)[C@@H](C)[C@@]3(O)[C@@H](C(=O)C(CO)=C[C@]4(O)C(=O)C(C)=C[C@@H]34)[C@@H]1C2(C)C
OUTPUT: 15.3

INPUT: # lookup: IC50 of C=C1CC[C@@H]2[C@](C)(CO)[C@H](O)CC[C@@]2(C)[C@@H]1/C=C/C1=CC(=C/c2ccco2)/OC1=O
OUTPUT: 100

INPUT: # lookup: IC50 of C=C1CC[C@@H]2[C@](C)(CO)[C@H](O)CC[C@@]2(C)[C@@H]1/C=C/C1=CC(=C/c2ccc(N(C)C)cc2)/OC1=O
OUTPUT: 70

INPUT: # lookup: IC50 of C=C1CC[C@@H]2[C@](C)(COC(=O)c3cccnc3)[C@H](OC(=O)c3cccnc3)CC[C@@]2(C)[C@@H]1/C=C/C1=CC(=C\c2cccc(Br)c2)/OC1=O
OUTPUT: 14

INPUT: # lookup: IC50 of COc1ccc2c(c1OC)O[C@H]1c3ccc(O)cc3OC[C@@H]21
OUTPUT: 174

For each listed entry, give its IC50.
1. C=C1CC[C@@H]2[C@](C)(CO)[C@H](O)CC[C@@]2(C)[C@@H]1/C=C/C1=CC(=C/c2ccccc2)/OC1=O
2. C=C1CC[C@@H]2[C@](C)(COC(=O)c3cccnc3)[C@H](OC(=O)c3cccnc3)CC[C@@]2(C)[C@@H]1/C=C/C1=CC(=C\c2ccc(OC)cc2)/OC1=O

OUTPUT:
[58, 11]
